Assignment: determine reported AC50 for the given compounds.

INPUT: Request: AC50, test system Equilibrative nucleoside transporter 1 (Homo sapiens), entry "CC(C)OC(=O)CCC/C=C\C[C@@H]1[C@@H](CC[C@@H](O)CCc2ccccc2)[C@H](O)C[C@@H]1O"
OUTPUT: > 30 µM

INPUT: What AC50 appears in the records for this compound with Equilibrative nucleoside transporter 1 (Homo sapiens)? "CN(C)/N=N/c1[nH]cnc1C(N)=O"
Sequence (Q99808 whole entry): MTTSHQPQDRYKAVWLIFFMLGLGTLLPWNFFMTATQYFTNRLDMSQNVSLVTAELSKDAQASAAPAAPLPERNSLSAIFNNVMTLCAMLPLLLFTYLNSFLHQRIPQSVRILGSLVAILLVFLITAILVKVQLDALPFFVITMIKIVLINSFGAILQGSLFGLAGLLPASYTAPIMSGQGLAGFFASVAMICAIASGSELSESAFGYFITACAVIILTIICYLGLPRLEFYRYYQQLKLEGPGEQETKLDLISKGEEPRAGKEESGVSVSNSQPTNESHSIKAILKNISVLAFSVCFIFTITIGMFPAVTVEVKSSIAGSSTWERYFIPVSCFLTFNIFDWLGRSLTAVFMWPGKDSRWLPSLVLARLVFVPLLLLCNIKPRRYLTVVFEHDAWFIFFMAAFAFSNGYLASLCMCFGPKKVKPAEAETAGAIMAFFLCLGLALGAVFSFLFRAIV
OUTPUT: > 10 µM

INPUT: Kindly state the measured AC50 obtained for "COC(=O)[C@H]1[C@H]2C[C@@H]3c4[nH]c5cc(OC)ccc5c4CCN3C[C@H]2C[C@@H](OC(=O)/C=C/c2cc(OC)c(OC)c(OC)c2)[C@@H]1OC" with Equilibrative nucleoside transporter 1 (Homo sapiens).
OUTPUT: > 30 µM

INPUT: Which measured AC50 belongs to "CCCCCNC(=N)N/N=C/c1c[nH]c2ccc(OC)cc12" , tested on Equilibrative nucleoside transporter 1 (Homo sapiens)?; further: assay procedure not described here
OUTPUT: > 30 µM

INPUT: Which AC50 is reported with Equilibrative nucleoside transporter 1 (Homo sapiens) for this entry: COCCCN1CCC(NC(=O)c2cc(Cl)c(N)c3c2OCC3)CC1 [PRUCALOPRIDE] ?
OUTPUT: > 30 µM

INPUT: Identify the measured AC50 of "N#Cc1ccc([C@H]2CCc3cncn32)c(F)c1" for Equilibrative nucleoside transporter 1 (Homo sapiens).
OUTPUT: > 10 µM

INPUT: Lab note: need AC50 with Equilibrative nucleoside transporter 1 (Homo sapiens) for entry COc1ccccc1N1CCN(CC(O)COc2cccc3ccccc23)CC1 (stereo not drawn) , please look it up.
OUTPUT: 13 µM

INPUT: What measured AC50 is associated with "O=C(O)C1=C(CSc2nnnn2CS(=O)(=O)O)CS[C@@H]2[C@H](NC(=O)[C@H](O)c3ccccc3)C(=O)N12" on Equilibrative nucleoside transporter 1 (Homo sapiens)?
OUTPUT: > 30 µM

Every entry's value here was drawn from ChEMBL document CHEMBL5291721.
